The following compounds are listed with their measured % Dose Remaining 6 hr values.
Experiment: Lipid clearance: % dose remaining in mouse liver 6 h and 24 h after administration of nanoparticle compositions
Assay type: in vivo, CD-1 mice
Details: Table 7c, 6 hr
From the text: In contrast, hEPO expression in rats induced by administration of a nanoparticle composition including a compound according to one of formulae (I), (Ia1)-(Ia6), (Ib), (II), (IIa), (III), and (IIIa) was substantially […] than that measured for MC3. […] Table 7c and 7d show additional protein expressions and clearance data from compositions with various compounds disclosed herein as compared to with MC3.
Note: unit % is implicit; provide only the numeric part.

CCCCCCCCCN(CCCCCCCCC)CCN(CCCCCCCCC)CC(=O)N1CCN(C(=O)CN(CCCCCCCCC)CCCOC(=O)CCCCC)CC1 [Compound 56] : 1.21
CCCCCC=CCC=CCCCCCCCCC(CCCCCCCCC=CCC=CCCCCC)OC(=O)CCCN(C)C (stereo not drawn) [MC3, reference compound] : 55.70
CCCCCCCCCN(CCCCC(=O)OCCCC)CCC1CCN(C(=O)CN(CCCCCCCCC)CCN(CCCCCCCCC)CCCCCCCCC)CC1 [Compound 60] : 21.18
CCCCCCCCCN(CCCCCCCC(=O)OC)CCC1CCN(C(=O)CN(CCCCCCCCC)CCN(CCCCCCCCC)CCCCCCCCC)CC1 [Compound 57] : 0.88
CCCCCCCCCN(CCCCCCCCC)CCN(CCCCCCCCC)CC(=O)N1CCN(C(=O)CN(CCCCCCCCC)CCCCCC(=O)OCCC)CC1 [Compound 54] : 5.18

Next compound, % Dose Remaining 6 hr to be filled in.
Requested field: % Dose Remaining 6 hr. Item: CCCCCCCCCN(CCCCCCCCC)CCN(CCCCCCCCC)CC(=O)N1CCN(C(=O)CN(CCCCCCCCC)CCCCCCC(=O)OCC)CC1 [Compound 53]
1.35

* * *

Experiment: pKa of nanoparticle compositions
Assay type: physicochemical
Details: Table 20-1; rows without footnote mark
endpoint: pKa

Example entries and their recorded answers appear below.
CCCCCCCOC(=O)CCCCCN(CCO)CCN(CCCCCC(=O)OCCCCCCC)CCCCCC(=O)OCCCCCCC [Compound 20-5] : 6.79
CCCCCCCCCCCCCCN(CCO)CCN(CCCCCCCCCCCCCC)CCCCCCCCCCCCCC [Compound 20-12] : 6.58
CCCCC/C=C\CCCCCN(CCO)CCN(CCCCCCCCCCCC)CCCCCCCCCCCC [Compound 20-23] : 6.56

Next molecule, pKa to be filled in.
Requested field: pKa. Item: CCCCCCCCCN(CCCCCCCCC)CCN(CCO)CCCCCC(=O)OCCCCC [Compound 20-6]
6.73

* * *

Assay: Encapsulation efficiency of RNA (QUANT-IT RIBOGREEN RNA assay)
Assay type: physicochemical
Conditions: Table 20-1; rows without footnote mark
From the text: For nanoparticle compositions including an RNA, a QUANT-IT™ RIBOGREEN® RNA assay (Invitrogen Corporation Carlsbad, Calif.) can be used to evaluate the encapsulation of an RNA by the nanoparticle composition. […] The fluorescence intensity can be measured using a fluorescence plate reader (Wallac Victor 1420 Multilablel Counter; Perkin Elmer, Waltham, Mass.) at an excitation wavelength of, for example, about 480 nm and an emission wavelength of, for example, about 520 nm. […]
endpoint: EE (%)
Note: unit % is implicit; provide only the numeric part.

Example entries and their recorded answers appear below.
CCCCCCCCCCCCN(CCO)CCN(CCCCCCCC(=O)OCCCCCCCCC)CCCCCCCC(=O)OCCCCCCCCC : 91.4
CCCCCCCCCCCCN(CCCCO)CCN(CCCCCCCCCCCC)CCCCCCCCCCCC : 95.3
CCCCCCCCCCCCN(CCCCCCCCCCCC)CCN(CCO)CCCCCC : 97.4
CCCCCCCCCCCCN(CCCCCCCCCCCC)CCNCCO : 99.5
CCCCC/C=C\C/C=C\CCCCCCCCN(CCCCCCCC/C=C\C/C=C\CCCCC)CCN(CCO)CCCCCCCCCCCC : 97.7
CCCCCCCCCCCCN(CCCCCCCCCCCC)CCN(CCO)CCCCCCCC(=O)OCCCCCCCCC : 96.6
CCCCC/C=C\C/C=C\CCCCCCCCN(CCO)CCN(CCCCCCCC/C=C\C/C=C\CCCCC)CCCCCCCC/C=C\C/C=C\CCCCC : 94.5

Requested field: EE (%). Item: CCCCCCCCCN(CCCCCCCCC)CCN(CCO)CCCCCC(=O)OCCCCC
94.7

* * *

System: IL-6
Test: Cytokine production induced by sample formulations: IL-6
Format: in vivo
Settings: Table 19-4; mice, i.v., 0.5 mpk, 6 hours; in pg/mL (unit assumed)
Mark 1.0 for IL-6 under 70, 0.0 if at or over.

Worked cases, answers included:
CCCCCCCCCCCCN(CCCCCCCCCCCC)CCN1CCN(C)CC1 : 0.0
CCCCC/C=C\C/C=C\CCCCCCCCN(CCCCCCCC/C=C\C/C=C\CCCCC)CCN1CCN(CCCCCCCCCCCC)CC1 : 0.0
CCCCC/C=C\C/C=C\CCCCCCCCN(CCCCCCCC/C=C\C/C=C\CCCCC)CCN1CCNCC1 : 1.0
CCCCCCCCCN(CCCCCCCCC)CCN1CCNCC1 : 0.0

# check: IL-6 < 70 for CCCCCC=CCC=CCCCCCCCCC(CCCCCCCCC=CCC=CCCCCC)OC(=O)CCCN(C)C (centres unmarked) [MC3, reference compound]
1.0

* * *

Assay: Encapsulation efficiency of RNA (QUANT-IT RIBOGREEN RNA assay)
Assay type: physicochemical
Conditions: comparison amongst compositions
endpoint: encapsulation efficiency, rank within the named table (in words)

CCCCCCCC/C=C\CCCCCCCCN(CCCCCCCC/C=C\CCCCCCCC)CCN(CCCCCCCC/C=C\CCCCCCCC)CCN1CCNCC1 : highest
CCCCC/C=C\C/C=C\CCCCCCCCN(CCCCCCCC/C=C\C/C=C\CCCCC)CCN(CCCCCCCC/C=C\C/C=C\CCCCC)CCN1CCNCC1 : highest
CCCCCCCCCCCCN(CCCCCCCCCCCC)CCN(CCCCCCCCCCCC)CCN1CCNCC1 : highest

* * *

Test system: hEPO mRNA expression
Experiment: Expression of hEPO in rats after intravenous administration
Type: in vivo
Conditions: Table 6; rats, i.v., 0.2 mg/kg or 0.5 mg/kg, 3 hours
Would you please tag the item yes when its hEPO (pg/mL) 3 hours is 300000 pg/mL or above, and no when it is below?

CCCCCCCCCCCCN(CCCCCCCCCCCC)CCN(CCCCCCCCCCCC)CCN1CCN(CCN(CCCCCCCC)CCCCCCCC)CC1 : no

Check if hEPO (pg/mL) 3 hours >= 300000 pg/mL (inclusive). Item: CCCCCCCCCCCCN(CCCCCCCCCCCC)CCN(CCCCCCCCCCCC)CCN1CCN(CCN(CCCCCC(=O)OCCCCC)CCCCCC(=O)OCCCCC)CC1
no

Same lookup for CCCCCCCCCCCCN(CCCCCCCCCCCC)CCN(CCCCCCCCCCCC)CCN1CCN(CCN(CCCCCCCCCCCC)CCCCCC(=O)OCCCCC)CC1 , please.
yes

Same lookup for CCCCCC=CCC=CCCCCCCCCC(CCCCCCCCC=CCC=CCCCCC)OC(=O)CCCN(C)C (stereo not drawn) [MC3, reference compound] , please.
yes

Same lookup for CCCCCCCCCCCCN(CCCCCCCCCCCC)CCN(CCCCCCCCCCCC)CCN1CCN(CCN(CCCCCCCCCCCC(=O)OC)CCCCCCCCCCCC(=O)OC)CC1 , please.
no

Same lookup for CCCCCCCCCCCCN(CCCCCCCCCCCC)CCN(CCCCCCCCCCCC)CCN1CCN(CCN(CCCCCCCCCCCC)CCCCCCCCCCCC(=O)OC)CC1 , please.
no

* * *

Experiment: Encapsulation efficiency of RNA (QUANT-IT RIBOGREEN RNA assay)
Type: physicochemical
Details: Table 5; hEPO mRNA; 40:20:38.5:1.5 Lipid:DOPE:Chol:PEG-DMG
Would you please tag the item met when its EE (%) is 90% or above, and not met when it is below?

Worked cases, answers included:
CCCCCCCCCCCCN(CCCCCCCCCCCC)CCN(CCCCCCCCCCCC)CCN1CCN(CCN(CCCCCCCC)CCCCCCCC)CC1 : met
CCCCCCCCCCCCCCN(CCCCCCCCCCCCCC)CCN1CCN(CCN(CCCCCCCCC)CCN(CCCCCCCCC)CCCCCCCCC)CC1 : met
CCCCCCCCCCCCN(CCCCCCCCCCCC)CCN(CCCCCCCCCCCC)CCN1CCN(CCN(CCCCCCCCCCCC(=O)OC)CCCCCCCCCCCC(=O)OC)CC1 : met
CCCCCCCCCCCCN(CCCCCCCCCCCC)CCN(CCCCCCCCCCCC)CCN1CCN(CCN(CCCCCCCCC)CCCCCCCCC)CC1 : not met
CCCCCCCCCCCCN(CCCCCCCCCCCC)CCN(CCCCCCCCCCCC)CCN1CCN(CCN(CCCCCC(=O)OCCCCC)CCCCCC(=O)OCCCCC)CC1 : met

// switching to the query molecule
Check if EE (%) >= 90% (inclusive). Item: CCCCCCCCCCCCN(CCCCCCCCCCCC)CCN(CCCCCCCCCCCC)CCN1CCN(CCN(CCCCCCCCCCCC)CCCCCC(=O)OCCCCC)CC1
met
